Measured % Retained 60° C. values are reported for all entries that follow.
# assayed_target: T1, TRCW5 antigen (CD3δε-Fc-Avi) (biotinylated (site not stated))
# T1 construct: also called recombinant CD3
# T1 sequence (chain, as listed by the source mutant limits assumed): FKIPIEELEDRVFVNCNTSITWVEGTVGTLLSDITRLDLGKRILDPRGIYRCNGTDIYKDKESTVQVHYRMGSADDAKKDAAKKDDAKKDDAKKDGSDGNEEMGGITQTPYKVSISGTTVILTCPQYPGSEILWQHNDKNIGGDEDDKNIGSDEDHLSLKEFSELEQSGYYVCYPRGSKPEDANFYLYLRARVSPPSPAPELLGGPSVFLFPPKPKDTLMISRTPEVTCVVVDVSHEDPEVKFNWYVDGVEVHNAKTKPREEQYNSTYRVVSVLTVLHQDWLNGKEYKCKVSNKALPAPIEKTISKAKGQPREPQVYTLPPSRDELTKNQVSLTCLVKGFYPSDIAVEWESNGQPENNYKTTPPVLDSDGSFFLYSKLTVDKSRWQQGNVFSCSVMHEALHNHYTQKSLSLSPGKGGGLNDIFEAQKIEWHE
# test_protocol: ELISA after heat
Lab book: enter the figure in %, no units written.

binder	% Retained 60° C. / %
CD3B2028 (scFv) scFv: QVQLVQSGAEVKKPGSSVKVSCKASGYTFTRSTMHWVKQAPGQGLEWIGYINPSSAYTNYNQKFQGRVTLTADKSTSTAYMELSSLRSEDTAVYYCASPQVHYDYNGFPYWGQGTLVTVSSGGSEGKSSGSGSESKSTGGSEIVLTQSPATLSASPGERVTLSCSASSSVSYMNWYQQKPGTAPRRLIYDSSKLASGVPARFSGSGSGRDYTLTISSLEPEDFAVYYCQQWSRNPPTFGGGTKVEIK	92

// moving on: another record for % Retained 60° C.
Q: What value of measured % Retained 60° C. is listed for CD3B2027 (scFv) scFv: QVQLVQSGAEVKKPGSSVKVSCKASGYTFTRSTMHWVKQAPGQGLEWIGYINPSSAYTNYNQKFQGRVTLTADKSTSTAYMELSSLRSEDTAVYYCASPQVHYDYNGFPYWGQGTLVTVSSGGSEGKSSGSGSESKSTGGSEIVLTQSPATLSASPGERVTLSCSASSSVSYMNWYQQKPGTSPRRLIYDSSKLASGVPARFSGSGSGRDYTLTISSLEPEDFAVYYCQQWSRNPPTFGGGTKVEIK ?
A: 93

Reference source for all entries: patent US20250145711A1
